- Tested on: CD8+ T cells
- Assay Info: In vitro immunogenicity: T-cell priming with aAPCs loaded with HLA-A*02 peptide/MHC and anti-CD28, multimer staining
- Assay type: cell-based, human
- Run Conditions: HLA-A*02 peptides
Value Kind: in vitro immunogenicity, Wells positive [%]

// solved cases for in vitro immunogenicity, Wells positive [%] follow
substance="43 (LLWAGPVTA; listed as Homo sapiens) [compound 43]" endpoint_value="++++ (>=70% = ++++)"
substance="2 (ALYGKLLKL; listed as Homo sapiens) [compound 2]" endpoint_value="++++ (>=70% = ++++)"
substance="9 (FLGDYVENL; listed as Homo sapiens) [compound 9]" endpoint_value="+ (<20% = +)"
substance="17 (ILHEHHIFL; listed as Homo sapiens) [compound 17]" endpoint_value="+ (<20% = +)"
substance="7 (AAAAKVPEV; listed as Homo sapiens) [compound 7]" endpoint_value="+ (<20% = +)"

Pending substance:
Entry 322 (ALVSGGVAQA; listed as Homo sapiens) [compound 322] ; in vitro immunogenicity, Wells positive [%] = + (<20% = +)
